- PROTOCOL SUMMARY: Lipophilicity, log D of the compound at pH 7.4
- Type: physicochemical
- ASSAY CONTEXT: buffer
EXPERIMENTAL READOUT: logD
Hey, just send me the number, nothing else.

Q: Need logD, item CCN(CC)C(=O)C1CCCc2c1c1cc(F)c(OC)cc1n2CCF (racemic)
Ans: 2.08

Q: Need logD, item O=C(C1CCCc2c1c1ccccc1n2CCF)N1CCCC1 (racemic)
Ans: 2.18

Q: Need logD, item CCN(Cc1ccccc1)C(=O)C1CCCc2c1c1ccccc1n2CCF (racemic)
Ans: 2.84

Q: Need logD, item CCOc1ccc2c(c1)c1c(n2CCF)CCCC1C(=O)N(CC)CC (racemic)
Ans: 2.56

Q: Need logD, item O=C(C1CCCc2c1c1ccccc1n2CCF)N1CCCCCC1 (racemic)
Ans: 2.35

Q: Need logD, item CCN(CC)C(=O)C1CCCc2c1c1ccc(OC)cc1n2CCF (racemic)
Ans: 2.41

Q: Need logD, item CN(Cc1ccccc1)C(=O)C1CCCc2c1c1ccccc1n2CCF (racemic)
Ans: 2.42

Q: Need logD, item O=C(C1CCCc2c1c1ccccc1n2CCF)N1CCOCC1 (racemic)
Ans: 1.53

Q: Need logD, item CCCN(CCC)C(=O)C1CCCc2c1c1ccccc1n2CCF (racemic)
Ans: 2.98

Q: Need logD, item CC(C)N(C)C(=O)C1CCCc2c1c1ccccc1n2CCF (racemic)
Ans: 2.2

Q: Need logD, item O=C(C1CCCc2c1c1ccccc1n2CCF)N1CCCCC1 (racemic)
Ans: 2.53

Q: Need logD, item CCN(CC)C(=O)C1CCCc2c1c1ccccc1n2CCF (racemic)
Ans: 2.78

Q: Need logD, item CCN(CC)C(=O)C1CCCc2c1c1c(OC)cc(OC)cc1n2CCF (racemic)
Ans: 1.95

Q: Need logD, item CCN(CC)C(=O)C1CCCc2c1c1cc(OC)ccc1n2CCF (racemic)
Ans: 2.71

Q: Need logD, item CN(Cc1ccccc1)C(=O)C1CCCc2c1c1cc(F)ccc1n2CCF (racemic)
Ans: 3.1

Q: Need logD, item CC(C)N(C)C(=O)C1CCCc2c1c1cc(F)ccc1n2CCF (racemic)
Ans: 2.72

Q: Need logD, item CCN(CC)C(=O)C1CCCc2c1c1c(OC)cccc1n2CCF (racemic)
Ans: 2.95

Q: Need logD, item CCCN(C)C(=O)C1CCCc2c1c1ccccc1n2CCF (racemic)
Ans: 1.99

Q: Need logD, item CCCCCCN(CCCCCC)C(=O)C1CCCc2c1c1ccccc1n2CCF (racemic)
Ans: 2.13

Q: Need logD, item CCN(CC)C(=O)C1CCCc2c1c1cc(F)ccc1n2CCF (racemic)
Ans: 2.37

Q: Need logD, item CCN(CC)C(=O)C1CCCc2c1c1cc(O)ccc1n2CCF (racemic)
Ans: 1.7

----------
Can you tell me Drug uptake for the items I'm about to list?
- Tested on: Rattus norvegicus
- PROTOCOL SUMMARY: Biodistribution in Sprague-Dawley rat olfactory bulbs at 1 to 3 MBq, iv after 30 mins by gamma counting
- Assay type: ADME, organism-based, Olfactory bulb
- ASSAY CONTEXT: in vivo, 0.5 h
Report as a plain number; the unit % ID/g is understood.

Q: Need Drug uptake, item CCCCCCN(CCCCCC)C(=O)C1CCCc2c1c1ccccc1n2CC[18F] (configuration not stated)
Ans: 0.1

Q: Need Drug uptake, item CCN(CC)C(=O)C1CCCc2c1c1cc(OC)c(F)cc1n2CC[18F] (configuration not stated)
Ans: 0.21

Q: Need Drug uptake, item CC(C)N(C(=O)C1CCCc2c1c1ccccc1n2CC[18F])C(C)C (configuration not stated)
Ans: 0.25

Q: Need Drug uptake, item CCN(Cc1ccccc1)C(=O)C1CCCc2c1c1ccccc1n2CC[18F] (configuration not stated)
Ans: 0.34

Q: Need Drug uptake, item CCN(CC)C(=O)C1CCCc2c1c1cc(OC)ccc1n2CC[18F] (configuration not stated)
Ans: 0.31

Q: Need Drug uptake, item CCOc1ccc2c(c1)c1c(n2CC[18F])CCCC1C(=O)N(CC)CC (configuration not stated)
Ans: 0.25

Q: Need Drug uptake, item CCCN(CCC)C(=O)C1CCCc2c1c1ccccc1n2CC[18F] (configuration not stated)
Ans: 0.4

Q: Need Drug uptake, item CCN(CC)C(=O)C1CCCc2c1c1ccc(F)cc1n2CC[18F] (configuration not stated)
Ans: 0.48

Q: Need Drug uptake, item CCN(CC)C(=O)C1CCCc2c1c1cc(F)ccc1n2CC[18F] (configuration not stated)
Ans: 0.41

Q: Need Drug uptake, item O=C(C1CCCc2c1c1ccccc1n2CC[18F])N1CCCC1 (configuration not stated)
Ans: 0.12

Q: Need Drug uptake, item CCN(CC)C(=O)[C@H]1CCCc2c1c1c(OC)cccc1n2CC[18F]
Ans: 0.45

Q: Need Drug uptake, item CCN(CC)C(=O)[C@@H]1CCCc2c1c1c(OC)cccc1n2CC[18F]
Ans: 0.23

Q: Need Drug uptake, item CCN(CC)C(=O)C1CCCc2c1c1c(OC)cccc1n2CC[18F] (racemic)
Ans: 0.36

Q: Need Drug uptake, item CN(Cc1ccccc1)C(=O)C1CCCc2c1c1ccccc1n2CC[18F] (configuration not stated)
Ans: 0.34

Q: Need Drug uptake, item CCN(CC)C(=O)C1CCCc2c1c1ccccc1n2CC[18F] (configuration not stated)
Ans: 0.39

Q: Need Drug uptake, item CCN(CC)C(=O)C1CCCc2c1c1c(F)cccc1n2CC[18F] (configuration not stated)
Ans: 0.51

Q: Need Drug uptake, item CCN(CC)C(=O)C1Sc2ccccc2-c2c1c1ccccc1n2CCF (configuration not stated)
Ans: 0.17

Q: Need Drug uptake, item COc1ccc(OC)c(CN(C(=O)C[18F])c2ccccc2Oc2ccccc2)c1
Ans: 0.49

Q: Need Drug uptake, item CC(C)N(C)C(=O)C1CCCc2c1c1ccccc1n2CC[18F] (configuration not stated)
Ans: 0.35

Q: Need Drug uptake, item CCC(C)N([11CH3])C(=O)c1cc2ccccc2c(-c2ccccc2Cl)n1 (configuration not stated)
Ans: 0.21

Q: Need Drug uptake, item CCN(CC)C(=O)C1CCCc2c1c1ccc(OC)cc1n2CC[18F] (configuration not stated)
Ans: 0.39

Q: Need Drug uptake, item O=C(C1CCCc2c1c1ccccc1n2CC[18F])N1CCCCCC1 (configuration not stated)
Ans: 0.33

----------
- PROTOCOL SUMMARY: Metabolic stability in Sprague-Dawley rat brain assessed as compound remaining at 1 to 3 MBq, iv after 60 mins by HPLC analysis
- Type: ADME, organism-based
- ASSAY CONTEXT: read-out: Stability
Exam item: assign label 1 to entries whose remaining at 1 h is below 80% and label 0 to entries at or above 80%. Note that a value of exactly 80% receives label 0.

Q: Item CC(C)N(C)C(=O)C1CCCc2c1c1ccccc1n2CC[18F] (stereo not drawn) : remaining at 1 h beneath 80%, strictly?
Ans: label 1

Q: Item CCN(CC)C(=O)C1CCCc2c1c1ccccc1n2CC[18F] (stereo not drawn) : remaining at 1 h beneath 80%, strictly?
Ans: label 1

Q: Item CCN(CC)C(=O)[C@H]1CCCc2c1c1c(OC)cccc1n2CC[18F] : remaining at 1 h beneath 80%, strictly?
Ans: label 0

Q: Item COc1ccc(OC)c(CN(C(=O)CF)c2ccccc2Oc2ccccc2)c1 : remaining at 1 h beneath 80%, strictly?
Ans: label 0

Q: Item CCN(CC)C(=O)C1CCCc2c1c1cc(F)ccc1n2CC[18F] (stereo not drawn) : remaining at 1 h beneath 80%, strictly?
Ans: label 0

Q: Item CC(C)N(C(=O)C1CCCc2c1c1ccccc1n2CC[18F])C(C)C (stereo not drawn) : remaining at 1 h beneath 80%, strictly?
Ans: label 1

----------
- PROTOCOL SUMMARY: Metabolic stability in Sprague-Dawley rat brain assessed as compound remaining at 1 to 3 MBq, iv after 60 mins by HPLC analysis
- Assay type: ADME, organism-based
- ASSAY CONTEXT: read-out: Stability
Exam item: assign yes (1) to entries whose remaining at 1 h is below 90% and no (0) to entries at or above 90%. Note that a value of exactly 90% receives no (0).

Q: Item CCN(CC)C(=O)C1CCCc2c1c1c(F)cccc1n2CC[18F] (stereo unspecified) : remaining at 1 h beneath 90%, strictly?
Ans: no (0)

Q: Item CCN(Cc1ccccc1)C(=O)C1CCCc2c1c1ccccc1n2CC[18F] (stereo unspecified) : remaining at 1 h beneath 90%, strictly?
Ans: yes (1)

Q: Item CCN(CC)C(=O)C1CCCc2c1c1cc(OC)ccc1n2CC[18F] (stereo unspecified) : remaining at 1 h beneath 90%, strictly?
Ans: yes (1)

Q: Item O=C(C1CCCc2c1c1ccccc1n2CC[18F])N1CCCCC1 (stereo unspecified) : remaining at 1 h beneath 90%, strictly?
Ans: yes (1)

Q: Item CCC(C)N([11CH3])C(=O)c1cc2ccccc2c(-c2ccccc2Cl)n1 (stereo unspecified) : remaining at 1 h beneath 90%, strictly?
Ans: no (0)
